// values below are reported melting point

>  <Input Smiles>
CCOC(=O)c1ccc(F)cc1F

>  <Result>
65 to 67 °C

$$$$
>  <Input Smiles>
CCn1c(C)nc([N+](=O)[O-])c1I

>  <Result>
210 to 212 °C

$$$$

In the following, a different compound is considered.
melting point in this record for `Fc1ccc(-c2ccc(Br)cc2)cc1` : 95 to 96 °C

* * *

Quantity Name: melting point (°C)

>  <Input Smiles>
CC(C)Nc1ccccc1

>  <melting point [°C]>
-10

$$$$

1 = O=C(O)c1cn(S(=O)(=O)c2ccccc2)c2ccccc12
2 = Cc1ccc(/C=C2\CN(S(=O)(=O)c3ccc(C)cc3)c3ccccc3N2S(=O)(=O)c2ccc(C)cc2)cc1
INPUT: Hi team, can someone confirm which has the larger melting point: 1 or 2 ? Thanks. Which one? Tell me its label.
OUTPUT: 1
(1: 232 °C, 2: 155 °C)
